Tested on: DIPGX7 (H3.3 K27M diffuse intrinsic pontine glioma line)
Experiment: growth inhibition (% activity, log2 RLU normalised to DMSO / staurosporine); higher = more growth inhibition
Conditions: 33 µM
readoutLabel: growth inhibition (%)
# value in %; strip the unit string

Return reported growth inhibition; argument: "CN(C)CC/C=C1/c2ccccc2COc2ccc(CC(=O)O)cc21"
2.2

Same lookup for "OC[C@H]1O[C@H](O[C@]2(CCl)O[C@H](CCl)[C@@H](O)[C@@H]2O)[C@H](O)[C@@H](O)[C@H]1Cl" , please.
-2.77

Same lookup for "CCN(CCCc1ccccc1)CCCc1ccccc1" , please.
5.69

Same lookup for COC1C(O)CC(=O)OC(C)CC=CC=CC(OC2CCC(N(C)C)C(C)O2)C(C)CC(CC=O)C1OC1OC(C)C(OC2CC(C)(O)C(O)C(C)O2)C(N(C)C)C1O (configuration not stated) , please.
-0.322

Same lookup for "CN(Cc1ccc(C(C)(C)C)cc1)Cc1cccc2ccccc12" , please.
0.907

Same lookup for "C#CCN[C@@H]1CCc2ccccc21" , please.
1.95

Same lookup for "NC(=O)c1cccnc1" , please.
-0.0852

Same lookup for "CC[C@H]1OC(=O)[C@H](C)[C@@H](O[C@H]2C[C@@](C)(OC)[C@@H](O)[C@H](C)O2)[C@H](C)[C@@H](O[C@@H]2O[C@H](C)C[C@H](N(C)C)[C@H]2O)[C@](C)(O)C[C@@H](C)C(=O)[C@H](C)[C@@H](O)[C@]1(C)O" , please.
0.845

Same lookup for CC(C(=O)O)c1ccc(C(=O)c2cccs2)cc1 (configuration not stated) , please.
-0.391

Same lookup for "COc1ccc(CN2CCN(C(c3ccc(F)cc3)c3ccc(F)cc3)CC2)c(OC)c1OC" , please.
2.14

Same lookup for "CN1CCC[C@H]1c1cccnc1" , please.
-1.09

Same lookup for "COc1ccc(C(=O)CC(=O)c2ccc(C(C)(C)C)cc2)cc1" , please.
-1.16

Same lookup for "O=C(O)C1(C(=O)O)CCC1.[NH2-].[NH2-].[Pt+2]" , please.
-1.49

Same lookup for CCCC(=O)OCOC(=O)C1=C(C)NC(C)=C(C(=O)OC)C1c1cccc(Cl)c1Cl (configuration not stated) , please.
2.32

Same lookup for O=C([O-])C(O)[C@H](O)[C@@H](O)[C@H](O)[C@H](O)CO.O=C([O-])C(O)[C@H](O)[C@@H](O)[C@H](O)[C@H](O)CO.[Ca+2] (some centres not stated) , please.
2.65

Same lookup for "C[N+]1(C)[C@@H]2C[C@@H](OC(=O)C(O)(c3cccs3)c3cccs3)C[C@H]1[C@@H]1O[C@@H]12" , please.
-2.26

Same lookup for "CC[C@@H]1/C=C(\C)C[C@H](C)C[C@H](OC)[C@H]2O[C@@](O)(C(=O)C(=O)N3CCCC[C@H]3C(=O)O[C@H](/C(C)=C/[C@@H]3CC[C@H](Cl)[C@H](OC)C3)[C@H](C)[C@@H](O)CC1=O)[C@H](C)C[C@@H]2OC" , please.
3.83

* * *

System: HNSC
Assay: growth inhibition (% activity, log2 RLU normalised to DMSO / staurosporine); higher = more growth inhibition
Details: 33 µM
What growth inhibition was measured for each of the following?
# value in %; strip the unit string

Return reported growth inhibition; argument: "CC(=O)N[C@@H](CS)C(=O)O"
1.29

Same lookup for "CCOC(=O)C1=C[C@@H](OC(CC)CC)[C@H](NC(C)=O)[C@@H](N)C1" , please.
0.516

Same lookup for "Cc1ccc(C(=O)c2ccc(CC(=O)O)n2C)cc1" , please.
2.18

Same lookup for "CO/N=C(\C(=O)N[C@@H]1C(=O)N2C(C(=O)OCOC(=O)C(C)(C)C)=C(/C=C\c3scnc3C)CS[C@H]12)c1csc(N)n1" , please.
0.492

Same lookup for "COc1cc(C)c(/C=C/C(C)=C/C=C/C(C)=C/C(=O)O)c(C)c1C" , please.
7.89

Same lookup for "Cc1cn([C@@H]2C[C@@H](O)[C@H](CO)O2)c(=O)[nH]c1=O" , please.
1.03

Same lookup for COC(=O)C1=C(C)NC(C)=C(C(=O)OCCN(C)Cc2ccccc2)C1c1cccc([N+](=O)[O-])c1 (stereo not given) , please.
13

Same lookup for "COC(=O)Nc1nc2cc(Sc3ccccc3)ccc2[nH]1" , please.
77

Same lookup for NCC1OC(OC2C(N)CC(N)C(OC3OC(CO)C(O)C(N)C3O)C2O)C(N)C(O)C1O (stereo not given) , please.
30.8

Same lookup for O=C(C1CCCCC1)N1CC(=O)N2CCc3ccccc3C2C1 (stereo not given) , please.
3.24

Same lookup for "Cn1c([N+](=O)[O-])cnc1COC(N)=O" , please.
7.72

Same lookup for "CC1(C)S[C@@H]2[C@H](NC(=O)Cc3ccccc3)C(=O)N2[C@H]1C(=O)O" , please.
1.53

Same lookup for Cc1ccc(C(=O)C(C)CN2CCCCC2)cc1 (stereo not given) , please.
-0.193

Same lookup for "CC(C)OC(=O)C(C(=O)OC(C)C)=C1SC=CS1" , please.
43.7

Same lookup for "CCCCOc1ccc(OCCCN2CCOCC2)cc1" , please.
5.68

Same lookup for "CO[C@H]1C(=O)[C@]2(C)[C@@H](OC)C[C@H]3OC[C@@]3(OC(C)=O)[C@H]2[C@H](OC(=O)c2ccccc2)[C@]2(O)C[C@H](OC(=O)[C@H](O)[C@@H](NC(=O)OC(C)(C)C)c3ccccc3)C(C)=C1C2(C)C" , please.
70.7

Same lookup for "Cc1cc(N)c2ccccc2[n+]1CCCCCCCCCC[n+]1c(C)cc(N)c2ccccc21" , please.
57.8

Same lookup for "CC(=O)OCC(=O)[C@@]12OC(C)(C)O[C@@H]1C[C@H]1[C@@H]3C[C@H](F)C4=CC(=O)C=C[C@]4(C)[C@@]3(F)[C@@H](O)C[C@@]12C" , please.
5.54

Same lookup for "CC1(C)S[C@@H]2[C@H](NC(=O)[C@H](NC(=O)N3CCN(S(C)(=O)=O)C3=O)c3ccccc3)C(=O)N2[C@H]1C(=O)O" , please.
-2.17

Same lookup for "COc1cc(NS(=O)(=O)c2ccc(N)cc2)nc(OC)n1" , please.
1.56

* * *

What growth inhibition was measured for each of the following?
System: DIPGX9 (diffuse intrinsic pontine glioma line)
Assay: growth inhibition (% activity, log2 RLU normalised to DMSO / staurosporine); higher = more growth inhibition
Conditions: 33 µM
# value in %; strip the unit string

Return reported growth inhibition; argument: "Oc1cc(O)c(Cl)cn1"
-0.302

Same lookup for "CCCC(=O)O[C@]1(C(=O)COC(C)=O)CC[C@H]2[C@@H]3C[C@H](F)C4=CC(=O)C=C[C@]4(C)[C@@]3(F)[C@@H](O)C[C@@]21C" , please.
2.91

Same lookup for "C1N2CN3CN1CN(C2)C3" , please.
2.53

Same lookup for "Clc1ccc2nsnc2c1NC1=NCCN1" , please.
-1.35

Same lookup for "O=C(O)Cc1cc(I)c(Oc2ccc(O)c(I)c2)c(I)c1" , please.
0.952

Same lookup for CC(C(=O)O)c1ccc2c(c1)[nH]c1ccc(Cl)cc12 (stereo not given) , please.
-0.825

Same lookup for "Cn1c(=O)c2[nH]cnc2n(C)c1=O" , please.
-0.0831

Same lookup for "O=C(O)c1cc(/N=N/c2ccc(O)c(C(=O)O)c2)ccc1O" , please.
0.755

Same lookup for "CC(=O)S[C@@H]1CC2=CC(=O)CC[C@]2(C)[C@H]2CC[C@@]3(C)[C@@H](CC[C@@]34CCC(=O)O4)[C@H]12" , please.
1.65

Same lookup for C[C@@H](O)[C@H]1C(=O)N2C(C(=O)[O-])=C(SC3Cn4cnc[n+]4C3)[C@H](C)[C@H]12 (stereo not given in full) , please.
0.334

* * *

What growth inhibition was measured for each of the following?
System: DIPGX7
Test: growth inhibition (% activity, log2 RLU normalised to DMSO / staurosporine); higher = more growth inhibition
Settings: 33 µM
# value in %; strip the unit string

Return reported growth inhibition; argument: "CN(C)/N=N/c1[nH]cnc1C(N)=O"
2.2

Same lookup for "Cc1ccc(S(=O)(=O)NC(=O)NN2CCCCCC2)cc1" , please.
-0.7

Same lookup for Nc1ccn(C2CSC(CO)O2)c(=O)n1 (stereo not given) , please.
-0.231

Same lookup for "CS(=O)(=O)c1ccc([C@@H](O)[C@@H](CF)NC(=O)C(Cl)Cl)cc1" , please.
1.63

Same lookup for "CO[C@H]1C(=O)[C@]2(C)[C@@H](OC)C[C@H]3OC[C@@]3(OC(C)=O)[C@H]2[C@H](OC(=O)c2ccccc2)[C@]2(O)C[C@H](OC(=O)[C@H](O)[C@@H](NC(=O)OC(C)(C)C)c3ccccc3)C(C)=C1C2(C)C" , please.
8.93

Same lookup for "OC(Cn1cncn1)(Cn1cncn1)c1ccc(F)cc1F" , please.
1.06

Same lookup for Clc1ccc(COC(Cn2ccnc2)c2ccc(Cl)cc2Cl)cc1 (stereo not given) , please.
0.954

Same lookup for "O=C(Oc1ccccc1C(=O)O)c1ccccc1O" , please.
0.584

Same lookup for c1ccc(-c2ccc(C(c3ccccc3)n3ccnc3)cc2)cc1 (stereo not given) , please.
5.02

Same lookup for "Nc1c2ccccc2nc2ccccc12" , please.
5.31
